All values here come from ChEMBL document CHEMBL1795236.

System: Plasmodium falciparum
Assay: Inhibition of Plasmodium falciparum recombinant falcipain 2 using fluorogenic ZFR-AMC substrate at 5 uM after 30 mins by fluorimetric assay
Peptide text beside a SMILES is read from it.
Assay endpoint: inhibition (%)

INSERT INTO measurements (compound, assay_endpoint, unit_descriptor, numeric_result) VALUES
  ('CC[C@H](C)[C@H](NC(=O)CNC(=O)[C@H](CO)NC(=O)[C@@H](NC(=O)[C@H](CC(C)C)NC(=O)[C@H](CCC(N)=O)NC(=O)[C@H](CCCNC(=N)N)NC(=O)CCCNC(=O)[C@@H](NC(=O)[C@@H]1CCCN1C(=O)[C@H](C)NC(=O)CNC(=O)[C@H](CC(C)C)NC(=O)[C@H](CC(C)C)NC(=O)[C@@H](N)CCCNC(=N)N)C(C)C)C(C)C)C(N)=O (HELM PEPTIDE1{R.L.L.G.A.P.V.[O=C(CCCN[*:1])[*:2]].R.Q.L.V.S.G.I.[am]}$$$$V2.0)', 'inhibition', '%', 57);
